Parameter pIC50: see the listing below.
# Measured On: human JAK2 (a.a. 828-1132) (Homo sapiens, UniProt O60674)
# Construct: JAK2 (a.a. 828-1132); His tag (N); made in house; host or cells: insect cells (baculovirus)
# Sequence (O60674 828-1132): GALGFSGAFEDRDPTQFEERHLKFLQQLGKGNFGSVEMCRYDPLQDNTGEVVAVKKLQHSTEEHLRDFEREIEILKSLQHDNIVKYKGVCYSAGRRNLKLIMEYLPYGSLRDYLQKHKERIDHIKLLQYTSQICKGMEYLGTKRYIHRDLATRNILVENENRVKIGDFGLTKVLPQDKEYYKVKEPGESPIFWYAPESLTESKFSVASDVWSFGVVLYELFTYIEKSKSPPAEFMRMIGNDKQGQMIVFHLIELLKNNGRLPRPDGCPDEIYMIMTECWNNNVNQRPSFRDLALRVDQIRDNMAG
# Procedure Text: In vitro JAK kinase assay (HTRF, phosphorylation of a biotinylated peptide), JAK2
# Format: biochemical
# Recorded Conditions: Table D1
Please report pIC50 as the negative decimal logarithm of the molar concentration, giving only the number.

Example entries and their recorded answers appear below.
[
  {
    "Molecule": "O=C(COc1ccc2cc1CCc1cncc(c1)Nc1ncc(Cl)c(n1)N2)N1CCC(c2cc(-c3cccs3)[nH]n2)CC1 [Example D257, tris(trifluoroacetate)]",
    "pIC50": 6.95
  },
  {
    "Molecule": "O=C(C[C@H]1CCN(C(=O)c2c[nH]nn2)C1)Nc1ccc2cc1CCc1cncc(c1)Nc1ncc(Cl)c(n1)N2 [Example D129-a, bis(trifluoroacetate)]",
    "pIC50": 7.08
  }
]

Look up pIC50: Cn1cc(C(=O)N2CC(CC(=O)Nc3ccc4cc3CCc3cncc(c3)Nc3ncc(Cl)c(n3)N4)C2)cn1 [Example D142, bis(trifluoroacetate)]
6.84

The reported measurements were obtained from patent US8871753B2.
